The reported measurements were obtained from patent US10933063B2.

Molecular target: UniProtKB Q06187
Experiment: biochemical
measuredMetric: IC50

Known IC50 results, listed for orientation:
compound="CC#CC(=O)N1CC[C@@H](c2nc(-c3ccc(C(=O)Nc4ccccn4)cc3)c3cncc(C)n23)C1 [Example 181]" measured="1000 to 10000 nM"
compound="C=CC(=O)N1CC[C@@H](c2nc(-c3ccc(C(=O)Nc4cc(C(F)(F)F)ccn4)cc3)c3cnccn23)C1 [Example 195]" measured="10 to 100 nM"
compound="CC#CC(=O)N1CCCC[C@H]1c1nc(-c2ccc(C(=O)Nc3ccccn3)cc2)c2c(C)ncc(C)n12 [Example 189]" measured="100 to 1000 nM"
compound="C=CC(=O)N1CCCC[C@H]1c1nc(-c2ccc(COc3ccc(F)c(F)c3)cc2)c2cnccn12 [Example 148]" measured="100 to 1000 nM"

Now consider a different compound.
Form: item C=CC(=O)N1CC[C@@H](c2nc(-c3ccc(Oc4cccc(OC)c4F)cc3)c3c(C(C)C)nccn23)C1 [Example 111] ; test system UniProtKB Q06187; IC50: 1000 to 10000 nM

----------
# IC50 listing for each entry below
Biological target: BTK (Homo sapiens (Human))
Sequence (Q06187 whole entry, looked up, species assumed): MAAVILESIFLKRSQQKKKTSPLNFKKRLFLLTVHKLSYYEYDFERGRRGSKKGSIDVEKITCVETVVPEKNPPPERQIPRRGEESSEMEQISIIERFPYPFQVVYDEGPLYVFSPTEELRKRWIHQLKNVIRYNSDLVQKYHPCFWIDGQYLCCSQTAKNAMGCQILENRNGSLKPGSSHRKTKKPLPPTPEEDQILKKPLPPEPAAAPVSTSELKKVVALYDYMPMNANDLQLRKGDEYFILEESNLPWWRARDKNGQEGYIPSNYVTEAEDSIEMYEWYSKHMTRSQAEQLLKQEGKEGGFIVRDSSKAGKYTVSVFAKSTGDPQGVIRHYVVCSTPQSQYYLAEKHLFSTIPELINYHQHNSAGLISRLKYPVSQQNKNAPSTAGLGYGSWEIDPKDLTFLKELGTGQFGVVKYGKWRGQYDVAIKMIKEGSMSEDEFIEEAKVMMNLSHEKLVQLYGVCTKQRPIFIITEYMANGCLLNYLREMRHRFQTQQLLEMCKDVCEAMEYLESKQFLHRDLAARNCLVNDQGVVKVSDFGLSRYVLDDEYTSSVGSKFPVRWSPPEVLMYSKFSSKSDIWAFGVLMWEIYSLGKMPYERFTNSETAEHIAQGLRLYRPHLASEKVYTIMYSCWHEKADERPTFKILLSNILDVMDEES
Assay: biochemical

compound="CC#CC(=O)N1CCC[C@@H](c2nc(-c3ccc(C(=O)Nc4ccccn4)cc3)c3cncc(C)n23)C1 [Example 179]" measured="1000 to 10000 nM"
compound="C=CC(=O)N1CCCC[C@H]1c1nc(-c2ccc(C(=O)Nc3ccccn3)cc2)c2cnccn12 [Example 168]" measured="10 to 100 nM"
compound="C=CC(=O)N1CCC[C@@H](c2nc(-c3ccc(C(=O)Nc4ccccn4)cc3)c3cncc(C)n23)C1 [Example 178]" measured="100 to 1000 nM"
compound="CC#CC(=O)N1CCC[C@H]1c1nc(-c2ccc(OCc3cccc(F)c3)cc2)c2cnccn12 [Example 138]" measured="1000 to 10000 nM"
compound="CC#CC(=O)N1CCC[C@H]1c1nc(-c2ccc(Oc3ccccc3)cc2Cl)c2cnccn12 [Example 14]" measured="1000 to 10000 nM"
compound="CC#CC(=O)N1CC[C@@H](c2nc(-c3ccc(C(=O)Nc4cc(C(F)(F)F)ccn4)cc3)c3cnccn23)C1 [Example 211]" measured="10 to 100 nM"
compound="C=CC(=O)N1CCC[C@H]1c1nc(-c2ccc(Oc3cccc(OC)c3F)cc2)c2c(C(N)=O)nccn12 [Example 37]" measured="1000 to 10000 nM"
compound="C=CC(=O)N1CCC[C@H]1c1nc(-c2ccc(OCc3c(F)cccc3F)cc2)c2cnccn12 [Example 136]" measured="10 to 100 nM"

Lookup result for C=CC(=O)N1CCC[C@H]1c1nc(-c2ccc(Oc3cccc(F)c3)cc2)c2cnccn12 [Example 11] ; measured IC50: 10 to 100 nM

----------
Target: BTK (Homo sapiens (Human))
Assay: biochemical
pIC50: −log10 of the molar value.
Readings of pIC50 for the listed compounds

Worked examples follow.
compound="CC#CC(=O)N1CC[C@@H](c2nc(-c3ccc(Oc4cccc(OC)c4F)cc3)c3c(C)ncc(C)n23)C1 [Example 75]" measured="7.00 to 8.00"
compound="C=CC(=O)N1CCC[C@H]1c1nc(-c2ccc(COc3cccc(OC)c3F)cc2)c2cnccn12 [Example 161]" measured="7.00 to 8.00"
compound="C=CC(=O)N1CCC[C@H]1c1nc(-c2ccc(Oc3ccccc3OC)cc2)c2cnccn12 [Example 23]" measured="7.00 to 8.00"
compound="C=CC(=O)N1CCC[C@H]1c1nc(-c2ccc(Oc3ccccc3)cc2Cl)c2cnccn12 [Example 13]" measured="7.00 to 8.00"
compound="CC#CC(=O)N1CCCC[C@H]1c1nc(-c2cccc(OCc3cccc(C(F)(F)F)c3)c2)c2c(C)nccn12 [Example 163]" measured="5.00 to 6.00"

Next:
Sample C=CC(=O)N1CCC[C@@H](c2nc(-c3ccc(Oc4cccc(OC)c4F)cc3)c3c(C)ncc(C)n23)C1 [Example 76] ; pIC50 observed: 7.00 to 8.00
